- systemName: IP3R3 (Rattus norvegicus, UniProt Q63269)
- Construct: gene Itpr3; full-length, homotetramer, stably expressed in DT40 cells lacking all endogenous IP3R; saponin-permeabilized cells
- Sequence (Q63269 whole entry): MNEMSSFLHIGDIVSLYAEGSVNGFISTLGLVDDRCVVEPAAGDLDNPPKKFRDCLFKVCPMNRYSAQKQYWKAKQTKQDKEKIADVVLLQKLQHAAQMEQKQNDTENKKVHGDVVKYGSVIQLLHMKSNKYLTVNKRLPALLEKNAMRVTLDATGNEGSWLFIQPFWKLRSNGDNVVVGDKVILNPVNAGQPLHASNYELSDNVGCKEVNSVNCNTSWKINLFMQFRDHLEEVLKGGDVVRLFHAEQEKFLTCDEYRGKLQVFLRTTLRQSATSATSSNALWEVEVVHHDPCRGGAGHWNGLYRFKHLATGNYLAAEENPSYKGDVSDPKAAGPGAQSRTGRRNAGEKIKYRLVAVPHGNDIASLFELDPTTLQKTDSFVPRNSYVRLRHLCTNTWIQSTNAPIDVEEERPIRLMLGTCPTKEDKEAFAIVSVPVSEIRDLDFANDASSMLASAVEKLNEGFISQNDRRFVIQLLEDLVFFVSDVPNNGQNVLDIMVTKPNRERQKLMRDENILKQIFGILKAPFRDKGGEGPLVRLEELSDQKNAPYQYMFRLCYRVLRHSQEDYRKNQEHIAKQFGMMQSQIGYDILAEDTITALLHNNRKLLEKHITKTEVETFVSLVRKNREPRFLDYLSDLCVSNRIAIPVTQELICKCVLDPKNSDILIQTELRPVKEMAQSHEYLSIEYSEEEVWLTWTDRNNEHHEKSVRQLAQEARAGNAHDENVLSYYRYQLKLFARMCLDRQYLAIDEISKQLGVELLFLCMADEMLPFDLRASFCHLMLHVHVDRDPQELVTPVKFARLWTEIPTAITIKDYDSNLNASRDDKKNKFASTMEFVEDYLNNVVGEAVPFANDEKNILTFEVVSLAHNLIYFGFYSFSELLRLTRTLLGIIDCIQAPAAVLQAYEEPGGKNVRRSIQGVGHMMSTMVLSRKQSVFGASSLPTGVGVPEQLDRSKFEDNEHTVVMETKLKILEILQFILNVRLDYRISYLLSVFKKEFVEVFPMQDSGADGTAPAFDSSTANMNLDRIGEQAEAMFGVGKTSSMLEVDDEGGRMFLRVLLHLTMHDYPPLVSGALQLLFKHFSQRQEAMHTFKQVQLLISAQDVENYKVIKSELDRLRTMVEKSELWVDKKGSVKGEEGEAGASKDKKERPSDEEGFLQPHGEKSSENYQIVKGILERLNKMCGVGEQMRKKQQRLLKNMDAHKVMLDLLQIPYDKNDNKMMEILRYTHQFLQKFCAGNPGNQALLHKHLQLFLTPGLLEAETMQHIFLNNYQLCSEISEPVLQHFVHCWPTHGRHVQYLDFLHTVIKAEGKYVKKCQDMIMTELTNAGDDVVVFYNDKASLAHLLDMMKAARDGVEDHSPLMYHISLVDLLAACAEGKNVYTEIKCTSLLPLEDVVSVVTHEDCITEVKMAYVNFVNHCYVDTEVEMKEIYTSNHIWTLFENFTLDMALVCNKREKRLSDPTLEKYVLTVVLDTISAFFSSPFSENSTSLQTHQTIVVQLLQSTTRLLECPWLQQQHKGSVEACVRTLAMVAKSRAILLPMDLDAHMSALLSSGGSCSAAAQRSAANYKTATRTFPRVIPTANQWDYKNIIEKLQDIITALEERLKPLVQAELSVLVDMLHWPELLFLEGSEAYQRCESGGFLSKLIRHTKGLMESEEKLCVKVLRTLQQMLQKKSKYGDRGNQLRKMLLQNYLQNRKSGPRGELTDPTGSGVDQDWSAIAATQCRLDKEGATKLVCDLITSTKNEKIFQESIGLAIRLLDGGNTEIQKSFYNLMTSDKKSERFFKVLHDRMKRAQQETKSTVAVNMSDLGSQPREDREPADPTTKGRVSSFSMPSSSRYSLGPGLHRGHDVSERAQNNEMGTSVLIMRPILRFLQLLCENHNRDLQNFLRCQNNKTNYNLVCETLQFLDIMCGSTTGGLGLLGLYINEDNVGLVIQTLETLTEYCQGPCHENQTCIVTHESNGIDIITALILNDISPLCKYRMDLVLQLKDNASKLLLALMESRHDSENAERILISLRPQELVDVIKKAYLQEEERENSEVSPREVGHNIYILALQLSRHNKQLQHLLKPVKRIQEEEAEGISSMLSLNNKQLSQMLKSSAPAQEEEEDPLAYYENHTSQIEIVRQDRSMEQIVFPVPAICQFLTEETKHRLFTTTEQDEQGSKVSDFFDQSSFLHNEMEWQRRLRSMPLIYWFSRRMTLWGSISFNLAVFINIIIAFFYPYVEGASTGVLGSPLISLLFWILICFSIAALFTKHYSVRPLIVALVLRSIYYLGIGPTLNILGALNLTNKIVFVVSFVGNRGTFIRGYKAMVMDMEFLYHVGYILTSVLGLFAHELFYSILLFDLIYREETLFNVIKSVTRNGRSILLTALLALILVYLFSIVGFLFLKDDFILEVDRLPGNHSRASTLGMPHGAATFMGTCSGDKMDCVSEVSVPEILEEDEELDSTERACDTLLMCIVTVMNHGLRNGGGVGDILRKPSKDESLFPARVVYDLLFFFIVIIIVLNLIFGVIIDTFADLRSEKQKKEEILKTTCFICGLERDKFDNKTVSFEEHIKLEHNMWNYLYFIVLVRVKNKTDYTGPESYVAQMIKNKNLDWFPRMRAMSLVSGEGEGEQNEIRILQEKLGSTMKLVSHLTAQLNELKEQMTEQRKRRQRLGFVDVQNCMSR
- assayNotes: Ca2+ release from ER of permeabilized DT40 cells, luminal Mag fluo-4
- Format: cell-based
readoutName: pEC50
Note on pEC50: it is the negative log10 of concentration, concentration in mol/L.

| compound | readoutName | quantitativeReadout |
| --- | --- | --- |
| O=P(O)(O)O[C@@H]1[C@@H](O)[C@@H](O)[C@@H](OP(=O)(O)O)[C@H](OP(=O)(O)O)[C@H]1O [(1,4,6)IP3] | pEC50 | 4.80 |

Query block: Give a short answer stating reported pEC50 for O=P(O)(O)O[C@@H]1[C@H](O)[C@H](O)[C@@H](OP(=O)(O)O)[C@H](OP(=O)(O)O)[C@H]1O [(1,4,5)IP3] .
Result block: 6.38

Query block: Give a short answer stating reported pEC50 for O=P(O)(O)O[C@@H]1[C@@H](O)[C@H](OP(=O)(O)O)C[C@H](O)[C@H]1OP(=O)(O)O [2-deoxy(1,4,5)IP3] .
Result block: 6.49

Query block: Give a short answer stating reported pEC50 for O=P(O)(O)O[C@@H]1[C@@H](O)[C@H](O)[C@H](O)[C@H](O)[C@H]1OP(=O)(O)O [(4,5)IP2] .
Result block: 4.94

====

Below, each of the compounds is paired with its reported EC50 value.
- systemName: IP3R2 (Mus musculus, UniProt Q9Z329)
- Construct: full-length, homotetramer, stably expressed in DT40 cells lacking all endogenous IP3R; saponin-permeabilized cells
- assayNotes: Ca2+ release from ER of permeabilized DT40 cells, luminal Mag fluo-4
Enter your answer as a number in µM; do not include the unit.

Would you please look over these solved cases?
| compound | EC50 (µM) |
| --- | --- |
| O=P(O)(O)O[C@@H]1[C@@H](O)[C@H](O)[C@H](O)[C@H](O)[C@H]1OP(=O)(O)O [(4,5)IP2] | 6.31 |
| O=P(O)(O)O[C@@H]1[C@H](O)[C@H](O)[C@@H](OP(=O)(O)O)[C@H](OP(=O)(O)O)[C@H]1O [(1,4,5)IP3] | 0.145 |
| O=P(O)(O)O[C@@H]1[C@@H](O)[C@@H](O)[C@@H](OP(=O)(O)O)[C@H](OP(=O)(O)O)[C@H]1O [(1,4,6)IP3] | 12.6 |
| O=P(O)(O)O[C@@H]1[C@@H](O)[C@H](OP(=O)(O)O)C[C@H](O)[C@H]1OP(=O)(O)O [2-deoxy(1,4,5)IP3] | 0.115 |
| O=P(O)(O)O[C@@H]1[C@@H](O)[C@H](OP(=O)(O)O)[C@H](O)C[C@H]1OP(=O)(O)O [3-deoxy(1,4,5)IP3] | 5.89 |

Query block: Tell me EC50 of CN(C)c1ccc(C(=C2C=CC(=[N+](C)C)C=C2)c2ccc(C(=O)NCCCOP(=O)(O)O[C@@H]3[C@H](O)[C@H](O)[C@@H](OP(=O)(O)O)[C@H](OP(=O)(O)O)[C@H]3O)cc2)cc1 [MG(1,4,5)IP3] when tested on IP3R2 (Mus musculus, UniProt Q9Z329).
Result block: 0.708

====

Below, each of the compounds is paired with its reported pEC50 value.
- systemName: IP3R3 (Rattus norvegicus, UniProt Q63269)
- Construct: gene Itpr3; full-length, homotetramer, stably expressed in DT40 cells lacking all endogenous IP3R; saponin-permeabilized cells
- assayNotes: Ca2+ release from ER of permeabilized DT40 cells, luminal Mag fluo-4
- Type: biochemical
Note on pEC50: it is the negative log10 of concentration, concentration in mol/L.

| compoundStructure | systemName | readoutName | quantitativeReadout |
| --- | --- | --- | --- |
| O=P(O)(O)O[C@@H]1[C@@H](O)[C@H](OP(=O)(O)O)[C@H](O)C[C@H]1OP(=O)(O)O | IP3R3 (Rattus norvegicus, UniProt Q63269) | pEC50 | 4.80 |

Query block: Give a short answer stating reported pEC50 for CN(C)c1ccc(C(=C2C=CC(=[N+](C)C)C=C2)c2ccc(C(=O)NCCCOP(=O)(O)O[C@@H]3[C@H](O)[C@H](O)[C@@H](OP(=O)(O)O)[C@H](OP(=O)(O)O)[C@H]3O)cc2)cc1 .
Result block: 5.76
